# Test system: L1210 leukemia ip in BDF1 mice, survival T/C
# Protocol description: NCI In Vivo Anticancer Drug Screen. Data for tumor model L1210 Leukemia (intraperitoneal) in B6D2F1 (BDF1) mice
# Cond: endpoint: mean survival time; dose: 10.0 mg/kg/injection; schedule: Q01DX001 (ip); vehicle: saline; higher = longer survival
Toxic doses and inconclusive results are not listed.
Recorded T/C values for a group of compounds are listed next.

Please review the entries below; each comes with its answer.
CCCCNC(c1ccc(C[N+]2(C)CCCC2)cc1)C(Cl)(Cl)Cl (centres undefined)
95 % of control
CCC1CCCCN1 (centres undefined)
105 % of control
CC1N2CC12c1ccccc1 (centres undefined)
103 % of control

Request: State its T/C on L1210 leukemia ip in BDF1 mice, survival T/C: NNc1ncnc2c1ccn2C1OC(CO)C(O)C1O (centres undefined)
Result: 110 % of control
